src = the domain aggregation screens of Martell et al. (2025)

# assay-text: soluble fraction after stress (log2 fold change); higher = more stays soluble; pooled small domains, quantitative proteomics;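 also: 20 min heating vs room temperature control held 20 min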
# details: stress: 75 degC
reported-property: soluble fraction (log2)

1. HMASLSRRELEVLELLALRLTVKEVAERLVISELTAKRHTSNIYQKLGVNRRRDALAAAQARGLLGAR | -3.18
2. HMNISRESLIGQILATLNKNPEEGFNYKQIAKRLNITDSPGRQMISDLLRELSKHGSLQEISHGKYKIKV | -0.237
3. HMIRSNLAEQAYAQLKALIHDFQLLPGDRFSENEMGTRLGVSRTPVREALFRLRNEGFLEVESKAGWYVK | -3.04
4. HMENLSGNDIKYLRKKYNLTQKELADALGLQKFGDRTIRRWEAEETHPSKLEQSSIQSFFNSLK | -0.0716
5. HMAENTKKWDETGRRYRSYIKLEKRLSENTVESYMRDYMQFAHFILRQWDVAPHKVEPQMVERYMAWLYER | -0.795
6. HMNDRLFQILYLLLEKGTMTAPELSRALEVSVRTIYRDIDALSLAGVPVYATQGKNGGVSLLPNY | -2.46
7. HMHTGEVVNGKVIDVKEDQIILNVGFKSDGIITRSEYSNDNSLDLRTVVNVGDDMEAKVLKINDGEGQVLL | -0.242
8. HMISSRDAAVIGLVENIQRAQLNAIDESSGFKHLMETYNLESKEIALLVGKSRSYVSNSLRLSK | 0.124
9. HMSPFYALDEVDSFLDGVNVERLAALIARQAEQAQFLVVSHRRPMIGASTRTIGVTQARGAHTQVVGLP | -0.312
10. HMEGSLQEDKVKEYQDRFKEELSNDLNTANSITVLYDLIKDDTLNGTTKRYLIEDFDKILSLDLIKE | 0.167
11. HMDETYRRQLEDLAREHGAEYLHGILREVDPASAEAIHANNIKRVIRALEFYHLSGKKISEHNETERQ | -0.12
12. HMGEIHAQIPGLVSHLFVKEGNTVQVEQKLFILEAMKMENEIDSPIQGTVKRIHIATGSKVEKGDLIMEIS | -1.47
13. HMKRITKKQLSQQLEQFFSSQPGKKLTLKDIFRALHLDTHPLKMLAMDIMEEMAWDDFITKKGENAYQLNT | -0.916
14. HMGDIQFMEYRINHSSGWIGKNISDFAAVSKNLVILIKRGQDVVIPRGPTAIMEDDVLVLHA | -1.88
15. HMAPRLTERERQVLQLIAEGLTSMQIGDRLHIAASTVDVHRRNLMRKLDLHNVADLTRYAITQGISP | -0.792
16. HMDNPLSQQEKRILQLISLGKTNQEIADILYLSNGTVRNYISSILNKLSANNRVEAARIAEEHGW | -0.755
17. HMILKQTHIVQELTGPIRLQEYGVGIFQQISTKSALKKALKKNQITVDGVVGSTATFIKGGEIIIYHVTE | -2.67
18. HMANHIAAIHVLKSKLQMSDSDYRVLITGLTQKASTKDMSDIERQRVRDHMQGLAERMGVVK | -0.66
19. HMQAPVVNHDLIKSFERQWREIKATAKGKVRSVNLSDARSILQSFLNTLQKGPGTDSLISSVQNELSLIA | -0.17
20. HMEMTSREIIKRLEEDGWYHVKTTGDHYQMKHPTKPGKVTIVHPAKDLSIGTLRSIEKQSGVRL | -0.18
21. HMDISPAAKQRLALIQPLLEKNAEAITDRKLRNAVAKDIANNQNTTVRRVLRLYYRYLATGQVM | 0.192
22. HMAQVRSTVERRENGTYTVELNLNDDVDNVMRLQLMVATKEMAEDLAQRFQKNPEQVYSQLVTALYG | -0.723
23. HMANILKHKNKDGVITSYTIRVYHGYDEAGKRLRPYTMNYKPAPNMTARQIEKELNRQAVQFEEQIKNGYA | -0.892
24. HMRPEVALSSRELEILEALATGKSNKELAQRLFISEATVKTHLIHIYQKLGVDTRTAAVTVARERKL | -2.3
25. HMKTERTVRVQDQHLHYTLEEKPIKNVNLRIRPDGSVYVSAPFGTSRTLIDDFVASKSKQILAIQQAQSAM | -0.277
